Experiment: Multi-component pharmacokinetic study of GQD, GQD-GC and single herb extracts in rats (plasma, LC/MS/MS)
Format: in vivo, Sprague-Dawley rats
Conditions: male, Sprague-Dawley, rat; GQD-GC group (GQD without Gan-Cao): rats, oral 16.5 g/kg, plasma; read-out: Cmax
log10 Cmax by entry:
Readout name: log10 Cmax (log10 of the value in ng/mL)

Molecule	log10 Cmax
COc1c(O)c(O[C@@H]2O[C@H](C(=O)O)[C@@H](O)[C@H](O)[C@H]2O)cc2oc(-c3ccccc3)cc(=O)c12 [Compound 38, lateriflorein 7-O-glucuronide]	1.77
COc1ccc2c(c1O)-c1c(O)c(OC)cc3c1[C@H](C2)[N+](C)(C)CC3 [Compound 19, magnoflorine]	0.72
COc1ccc(C2=CC(=O)OC2Cc2ccc(O)cc2)c(OC2OC(CO)C(O)C(O)C2O)c1 [Compound 41, (4S)-puerol B 2″-O-glucopyranoside]	1.05
COc1cc2c(cc1OC)-c1cc3ccc4c(c3c[n+]1CC2)OCO4 [Compound 22, epiberberine]	0.97
COc1ccc2cc3[n+](cc2c1OC)CCc1cc2c(cc1-3)OCO2 [Compound 24, berberine]	1.51
O=C(O)[C@H]1O[C@@H](Oc2cc(O)c3c(=O)cc(-c4ccccc4)oc3c2O)[C@H](O)[C@@H](O)[C@@H]1O [Compound 14, norwogonin 7-O-glucuronide]	2.56
O=c1c(-c2ccc(O)cc2)coc2c(C3OC(COC4OCC(O)(CO)C4O)C(O)C(O)C3O)c(O)cc(O)c12 (centres unmarked) [Compound 6]	1.08
O=c1c(-c2ccc(O)cc2)coc2c([C@@H]3O[C@H](CO)[C@@H](O)[C@H](O)[C@H]3O)c(O)ccc12 [Compound 7, puerarin]	2.62
